assay: Particle size and polydispersity index of nanoparticle compositions (Zetasizer Nano ZS); assay type: physicochemical; conditions: Table 20-1; rows without footnote mark
Experimental Endpoint: Size (nm)

• CCCCCCCCCCCCCCN(CCO)CCN(CCCCCCCCCCCC)CCCCCCCCCCCC = 90.6
• CCCCC/C=C\CCCCCN(CCO)CCN(CCCCCCCCCCCC)CCCCCCCCCCCC = 88.1
• CCCCCCCCCCCCN(CCO)CCN(CCCCCC(=O)OCCCCC)CCCCCC(=O)OCCCCC = 82.1
• CCCCCCCCCCCCN(CCO)CCN(CCCCCCCCCCCC)CCCCCCCCCCCC = 86.8

====

test system: IL-6; assay: Cytokine production induced by sample formulations: IL-6; format: in vivo; conditions: Table 20-4, formula (20-I); mice, i.v., 0.5 mpk, 6 hours; in pg/mL (unit assumed)
Experimental Endpoint: IL-6

* CCCCCCCCCCCCN(CCO)CCN(CCCCCCCCC)CCCCCCCCC | 102
* CCCCCCCCCCCCN(CCCCCCCCCCCC)CCN(CCO)CCCCCCCC(=O)OC(CCCCCCCC)CCCCCCCC | 152.1

I. CCCCCCCCCCCCN(CCCCCCCCCCCC)CCN(CCO)CCCCCCCC(=O)OCCCCCCCCC
II. CCCCC/C=C\C/C=C\CCCCCCCCN(CCCCCCCC/C=C\C/C=C\CCCCC)CCN(CCO)CCCCCCCCCCCC
## Task Between the entries labeled I and II , whose measured IL-6 is lower? Lab log: write the label of the selected item as the result.
## Result I

I. CCCCCCCCCCCCCCN(CCO)CCN(CCCCCCCCCCCCCC)CCCCCCCCCCCCCC
II. CCCCCCCCCCCCN(CCCCO)CCN(CCCCCCCCCCCC)CCCCCCCCCCCC
III. CCCCCCCCCCCCN(CCCCCCCCCCCC)CCN(CCCCCCCCCCCC)CC(=O)O
IV. CCCCCCCCCN(CCCCCCCCC)CCN(CCO)CCCCCC(=O)OCCCCC
## Task Please produce an ascending ranking of these molecules based on IL-6. Respond with an ordered listing of the labels, as requested.
## Result IV, III, II, I
(IV: 0, III: 62.4, II: 118.6, I: 445.7)
